Biological target: UniProt Q7ZJM1
Sequence (Q7ZJM1 whole entry): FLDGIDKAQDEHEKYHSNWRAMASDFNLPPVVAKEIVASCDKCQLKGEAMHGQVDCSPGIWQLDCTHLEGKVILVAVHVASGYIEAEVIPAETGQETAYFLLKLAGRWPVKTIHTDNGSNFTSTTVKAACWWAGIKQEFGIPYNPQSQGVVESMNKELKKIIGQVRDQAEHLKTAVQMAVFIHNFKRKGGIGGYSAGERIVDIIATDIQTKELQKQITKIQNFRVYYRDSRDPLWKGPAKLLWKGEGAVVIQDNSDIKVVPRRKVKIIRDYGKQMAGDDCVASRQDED
Test: Inhibition of wild-type HIV1 integrase strand transfer activity
pIC50: −log10 of the molar value.
Assign class 1 to entries whose pIC50 meets or exceeds 5; assign class 0 to the rest.

Some solved entries appear below for comparison.
smiles_code=Cc1cc(O)c(C(=O)/C=C/c2ccc(Br)cc2)c(=O)o1 group_label="class 0"
smiles_code=Cc1cc2c(c(=O)o1)C(/C=C/c1ccc(Br)s1)=[O+][B-](F)(F)O2 group_label="class 1"
smiles_code=Cc1cc2c(c(=O)o1)C(/C=C/C=C1/N(C)c3ccccc3C1(C)C)=[O+][B-](F)(F)O2 group_label="class 0"
smiles_code=CC[NH+](CC)CC.Cc1cc2c(c(=O)o1)C(/C=C/C=C1\O[B-](F)(F)Oc3cc(C)oc(=O)c31)=[O+][B-](F)(F)O2 group_label="class 1"
smiles_code=COc1ccc(Br)cc1/C=C/C(=O)c1c(O)cc(/C=C/c2ccc(N(C)C)cc2)oc1=O group_label="class 0"
smiles_code=Cc1cc2c(c(=O)o1)C(/C=C/c1ccc(N(C)C)cc1)=[O+][B-](F)(F)O2 group_label="class 0"

Please check the record `Cc1cc2c(c(=O)o1)C(/C=C/c1ccc(Br)cc1)=[O+][B-](F)(F)O2` and state if its pIC50 is at or above 5.
class 1
